# System: DMS-114
# assay_details: NCI tumour cell line growth inhibition, 48 h
Calls of active or inactive are those of the source. Rule as the data show it: active = GI50 up to about 1.1 µM and inactive = higher.
Respond with a class label; see 1 = active, 0 = inactive

These recorded examples may help you get a feel for the data.
compound	tested_system	classification
Cc1ccc(S(=O)(=O)n2c(-c3ccccc3)c(-c3ccccc3)c3ccccc32)cc1	DMS-114	0
CCOC(C[C@H](O)[C@H]1COC(=S)S1)OCC	DMS-114	0
C[C@@H]1C[C@@H]2C(=O)N(c3ccccc3)C(=O)[C@@H]2c2[nH]c3ccc(Br)cc3c21	DMS-114	0

Inquiry: What did the test return for `CCc1cccc(C)c1NS(=O)(=O)c1ccccc1` ?
Reply text: 0

Inquiry: Call for entry `COc1ccc2c(c1)C(=O)c1ccc(OC)cc1C2=S` :
Reply text: 0

Inquiry: Record request — test call for O=C(O)C(CS)Nc1c2ccccc2[n+]([O-])c2ccccc12 (stereo not given)
Reply text: 0

Inquiry: Given `CCOC(=O)c1ccc(/N=N/c2cc(C(=O)OCC)ccc2O)cc1` , state the outcome it received in this test.
Reply text: 0

Inquiry: // outcome(item) with item = `Cc1cc2c(c(C#N)c1C)NC(=O)CCC2=O`
Reply text: 0

Inquiry: // param item: CCCCN(CC)CC(C(C)=O)c1c(O)c2ccccc2oc1=O (stereo not given) ; yields the recorded call
Reply text: 0

Inquiry: Assay outcome for CC1CC2(S(=O)(=O)c3ccccc3)ON1CC2S(=O)(=O)c1ccccc1 (stereo not given) : what was it?
Reply text: 0

Inquiry: Dear colleague, could you share the recorded outcome for `CC(=O)OCCOCNC(=S)N/N=C/c1ccc(Br)s1` when you have a moment?
Reply text: 0

Inquiry: Tell me the recorded outcome of this test for [N-]=[N+]=NC(CCl)c1cn([C@H]2C[C@H](O)[C@@H](CO)O2)c(=O)[nH]c1=O (stereo not given in full) .
Reply text: 0

Inquiry: Give the logged outcome of this assay for the following compound: CCOc1ccccc1NC(=O)CC(C(=O)OC)C(=O)C(=O)OC (stereo not given)
Reply text: 0

Inquiry: Short answer needed: outcome of this test for `COc1cc(=O)oc(/C=C/CO)c1C` ?
Reply text: 0
